PROTOCOL NOTES: qHTS assay to identify small molecule antagonists of the thyroid receptor (TR) signaling pathway (AID 743065); further: nearly all actives have a fitted effect of over 55% in size
EXPERIMENTAL PARAMETERS: GH3.TRE-Luc, T3-stimulated luciferase inhibition, 23.5 h; series mostly up to 70.3 µM
Records with an inconclusive call do not appear. Active and inactive are the calls of the source. The call rests on the fitted dose curve; in most records, active means well fitted inhibition curve with a large enough effect in the repeat runs; inconclusive means weak or mixed curves; inactive means no such curve, though single readings can be large or run the other way.
Answer with one of the outcomes given here: active, inactive

Ask | Record request — test call for c1cc(N(CC2CO2)CC2CO2)ccc1Cc1ccc(N(CC2CO2)CC2CO2)cc1 (configuration not stated)
Reply | active

Ask | Consider next the molecule O=C(Nc1cccc2c(=O)cc(-c3nn[nH]n3)oc12)c1ccc(OCCCCc2ccccc2)cc1 in the same way.
Reply | inactive

Ask | Another molecule to look at: CCOC(C)=O
Reply | inactive

Ask | Quick one: Cc1ccc(C(C)(C)O)cc1
Reply | inactive

Ask | Next molecule up: O=C=Nc1cccc(C(F)(F)F)c1
Reply | active

Ask | Now the molecule CC(C)=CCC1C(=O)N(c2ccccc2)N(c2ccccc2)C1=O
Reply | active

Ask | Again, but for CCCCN1CCCC1C(=O)Nc1c(C)cc(C)cc1C (configuration not stated)
Reply | inactive
